System: HEL 92.1.7 cells
Test: Cell proliferation assay (CellTiter-Glo), HEL 92.1.7
Format: cell-based
Conditions: Homo sapiens, read-out: HEL 92.1.7 EC50
pEC50: −log10 of the molar value.
Observed Property: pEC50

> print(dat)
                              sample.smiles        result
1  Cc1ccccc1-c1cnc(N)c(C(=O)Nc2[nH]c(=O)ncc2N2CCCCC2)n1  5.00 to 5.30
2  Nc1ncc(-c2ccccc2F)nc1C(=O)Nc1[nH]c(=O)ncc1N1CCCCC1        > 6.00
3  Nc1ncc(-c2ccccc2)nc1C(=O)Nc1[nH]c(=O)ncc1N1CCCCC1  5.30 to 6.00
4  COc1ncccc1-c1ccc(N)c(C(=O)Nc2cnccc2N2CCCCC2)n1        > 6.00
